target: human GM-CSF T117 (human, UniProt P04141 18-144); assay: cell-based or functional assay
Sequence (P04141 18-144 I117T limits assumed): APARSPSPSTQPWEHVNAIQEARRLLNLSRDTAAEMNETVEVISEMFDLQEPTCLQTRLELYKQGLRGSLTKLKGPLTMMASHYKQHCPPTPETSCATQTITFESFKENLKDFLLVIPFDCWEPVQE
Parameter measured: Fold improvement of 4K21 H93Y alone on T117 (IC50, TF-1 proliferation) (fold)
# unit: fold | format: bare number

# annotated cases, reported Fold improvement of 4K21 H93Y alone on T117 (IC50, TF-1 proliferation) shown
Entry under test: MSB0010600 4K21 (4K21 hVH S55R-T62S hVL S27eY-N28I-H34S-N53R-H93Y) (antibody, V domains shown) VH: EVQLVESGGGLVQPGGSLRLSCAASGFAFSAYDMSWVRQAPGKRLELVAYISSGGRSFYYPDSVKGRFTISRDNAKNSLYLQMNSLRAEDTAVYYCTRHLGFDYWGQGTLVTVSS VL: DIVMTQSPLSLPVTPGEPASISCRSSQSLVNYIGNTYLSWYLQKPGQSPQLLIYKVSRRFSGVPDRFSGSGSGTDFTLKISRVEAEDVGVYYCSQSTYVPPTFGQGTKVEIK . Its Fold improvement of 4K21 H93Y alone on T117 (IC50, TF-1 proliferation) was 3.6

Entry under test: MSB0010602 4K21 (4K21 hVH S55K-T62S hVL S27eY-N28I-H34S-N53R-H93Y) (antibody, V domains shown, IgG) VH: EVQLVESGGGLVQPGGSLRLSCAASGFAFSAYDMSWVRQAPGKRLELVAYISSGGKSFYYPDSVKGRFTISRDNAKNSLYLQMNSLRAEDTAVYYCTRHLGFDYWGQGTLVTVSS VL: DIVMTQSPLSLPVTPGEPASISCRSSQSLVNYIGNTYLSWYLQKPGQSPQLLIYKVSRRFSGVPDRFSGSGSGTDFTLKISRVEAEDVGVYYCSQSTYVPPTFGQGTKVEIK . Its Fold improvement of 4K21 H93Y alone on T117 (IC50, TF-1 proliferation) was 5

Entry under test: MSB0010603 4K21 (4K21 hVH S56V-T62S hVL N28I-H34S-N53R-H93Y) (antibody, V domains shown, IgG) VH: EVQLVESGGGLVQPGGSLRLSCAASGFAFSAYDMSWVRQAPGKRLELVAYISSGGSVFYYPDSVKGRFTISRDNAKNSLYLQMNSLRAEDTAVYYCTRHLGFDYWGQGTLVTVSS VL: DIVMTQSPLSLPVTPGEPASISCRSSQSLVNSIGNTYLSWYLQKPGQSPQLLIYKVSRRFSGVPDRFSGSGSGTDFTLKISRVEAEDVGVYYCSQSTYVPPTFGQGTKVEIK . Its Fold improvement of 4K21 H93Y alone on T117 (IC50, TF-1 proliferation) was 5.1

Now for a further binder.
Entry under test: anti-GM-CSF 4K21 hIgG1K antibody (MSB0010259), recombinant chimeric 4K21 (antibody, V domains shown, Murine variable domains fused to human constant IgG1 heavy chain and kappa light chain domains) VH: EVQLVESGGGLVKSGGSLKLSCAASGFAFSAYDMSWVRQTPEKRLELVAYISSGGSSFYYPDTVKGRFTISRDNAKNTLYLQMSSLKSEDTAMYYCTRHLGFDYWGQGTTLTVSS VL: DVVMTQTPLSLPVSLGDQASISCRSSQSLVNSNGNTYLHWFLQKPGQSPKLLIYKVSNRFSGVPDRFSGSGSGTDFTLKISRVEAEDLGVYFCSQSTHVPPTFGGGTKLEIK . Its Fold improvement of 4K21 H93Y alone on T117 (IC50, TF-1 proliferation) was 0.1
